TARGET_SYSTEM: Protein translocase subunit SecA (Escherichia coli (strain K12)) (UniProt P10408)
Sequence (P10408 whole entry): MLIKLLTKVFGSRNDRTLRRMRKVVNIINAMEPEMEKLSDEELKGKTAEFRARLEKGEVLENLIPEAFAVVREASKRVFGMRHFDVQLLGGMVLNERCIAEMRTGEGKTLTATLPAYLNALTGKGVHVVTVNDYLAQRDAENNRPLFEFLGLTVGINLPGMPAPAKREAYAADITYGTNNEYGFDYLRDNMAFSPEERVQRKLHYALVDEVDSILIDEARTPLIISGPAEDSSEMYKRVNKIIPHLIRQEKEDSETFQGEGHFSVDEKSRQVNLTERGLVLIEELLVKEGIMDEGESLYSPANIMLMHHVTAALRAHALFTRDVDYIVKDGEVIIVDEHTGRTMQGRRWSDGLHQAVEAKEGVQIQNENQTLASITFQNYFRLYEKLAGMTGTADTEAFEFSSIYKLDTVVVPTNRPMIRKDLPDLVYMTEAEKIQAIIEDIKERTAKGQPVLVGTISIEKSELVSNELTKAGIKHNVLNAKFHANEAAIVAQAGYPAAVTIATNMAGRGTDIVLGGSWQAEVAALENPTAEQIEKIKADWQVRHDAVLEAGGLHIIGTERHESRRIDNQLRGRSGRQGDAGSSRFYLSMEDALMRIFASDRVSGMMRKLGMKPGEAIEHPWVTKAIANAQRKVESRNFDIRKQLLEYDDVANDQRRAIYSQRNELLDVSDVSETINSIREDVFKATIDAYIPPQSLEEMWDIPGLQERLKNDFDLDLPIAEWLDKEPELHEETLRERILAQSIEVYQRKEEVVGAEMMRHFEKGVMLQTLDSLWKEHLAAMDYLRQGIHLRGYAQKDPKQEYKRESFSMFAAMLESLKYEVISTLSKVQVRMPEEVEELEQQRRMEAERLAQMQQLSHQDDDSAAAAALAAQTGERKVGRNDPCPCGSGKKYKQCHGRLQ
PROTOCOL_SUMMARY: Assay to Identify E. coli SecA ATPase Inhibitors
Type: functional
Design: scale not given: direction of the effect not stated beside the values
APPLIED_CONDITIONS: 30 µM
Results with a measured potency or affinity are listed apart.
MEASURED_PROPERTY: Percent Effect (%)

COMPOUND	READOUT_VALUE
CSCCC(=O)N1CCC(Oc2cc(C)ccc2F)(C(=O)O)CC1	-1.39
Cc1nc(CSCCC(=O)NCc2cccnc2N(C)C)cs1	-0.871
CC(C(=O)Nc1cccc(N2CCCCC2)c1)n1cncn1 (configuration not stated)	-7.36
COCCN1C(=O)C[C@H]2[C@H]1CCN2Cc1ccc(OC)cc1	-2.83
Cn1cc(CCNC(=O)NCc2nnc3n2CCC3)cn1	-2.08
CC(=O)N1CCN(C(=O)CCCc2nc(C(C)C)no2)CC1	-1.74
CNc1cncc(C2CCCN2Cc2ccccc2OCC(=O)O)n1 (configuration not stated)	-4.52
CCc1csc(CCNC(=O)C2CC(=O)N(C(C)C)C2)n1 (configuration not stated)	-2.98
CCCS(=O)(=O)N1CCOCC2(CCN(c3ccccn3)C2)C1 (configuration not stated)	-1.74
Cc1cccc(Cn2ccc(NS(C)(=O)=O)n2)c1	-6.41
CCc1nnc(CNCC2CCCN2c2cccnn2)o1 (configuration not stated)	-2.1
FC(F)(F)c1cc(N2CCc3ncnc(NC4CC4)c3CC2)ncn1	-1.41

Source: ChEMBL document CHEMBL3988442
